Molecular target: T1, Human SIRPαV1 (NP_542970.1), Extracellular Domain + His-Tag (human, UniProt P78324 31-373)
T1 construct: also called huSIRPαV1; hSIRPαV1; not shown: His-Tag
T1 sequence (P78324 other isoform, or with tags, fused parts or gaps): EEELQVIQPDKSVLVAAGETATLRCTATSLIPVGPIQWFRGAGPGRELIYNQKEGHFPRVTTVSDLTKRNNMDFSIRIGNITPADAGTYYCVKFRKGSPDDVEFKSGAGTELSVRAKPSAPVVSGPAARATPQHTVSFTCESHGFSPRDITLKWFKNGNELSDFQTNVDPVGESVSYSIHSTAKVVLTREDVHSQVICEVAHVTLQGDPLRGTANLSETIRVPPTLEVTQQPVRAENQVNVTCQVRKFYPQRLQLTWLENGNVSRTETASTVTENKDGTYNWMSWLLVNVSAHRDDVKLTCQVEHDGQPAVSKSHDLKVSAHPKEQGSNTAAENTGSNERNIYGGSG
Assay: SPR, antibody captured on Protein A/G, ECD-His analyte, 1:1 fit
TEST_READOUT: kon (M⁻¹ s⁻¹)
Number only, in M⁻¹ s⁻¹; omit the unit.

// solved cases for kon follow
INSERT INTO results (binder, test_readout, reading_unit, experimental_result) VALUES
  ('Antibody E6 (antibody, human IgG1, kappa, L234A L235A, V domains shown) VH: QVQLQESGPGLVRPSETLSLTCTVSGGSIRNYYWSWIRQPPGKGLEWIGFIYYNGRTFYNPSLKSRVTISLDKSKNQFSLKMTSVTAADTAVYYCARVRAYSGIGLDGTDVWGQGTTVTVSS VL: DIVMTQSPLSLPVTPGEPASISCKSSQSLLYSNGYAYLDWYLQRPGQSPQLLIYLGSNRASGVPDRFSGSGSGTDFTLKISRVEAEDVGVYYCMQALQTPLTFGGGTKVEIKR', 'kon', 'M⁻¹ s⁻¹', 374000),
  ('Antibody A8 (antibody, human IgG1, kappa, L234A L235A, V domains shown) VH: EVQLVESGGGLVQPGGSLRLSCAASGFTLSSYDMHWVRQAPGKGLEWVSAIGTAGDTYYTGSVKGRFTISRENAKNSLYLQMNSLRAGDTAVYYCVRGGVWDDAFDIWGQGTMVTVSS VL: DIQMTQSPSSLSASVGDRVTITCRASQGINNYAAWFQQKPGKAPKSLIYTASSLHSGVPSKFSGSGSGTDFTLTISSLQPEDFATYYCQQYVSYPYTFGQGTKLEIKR', 'kon', 'M⁻¹ s⁻¹', 708000),
  ('Antibody E3 (antibody, human IgG1, kappa, L234A L235A, V domains shown) VH: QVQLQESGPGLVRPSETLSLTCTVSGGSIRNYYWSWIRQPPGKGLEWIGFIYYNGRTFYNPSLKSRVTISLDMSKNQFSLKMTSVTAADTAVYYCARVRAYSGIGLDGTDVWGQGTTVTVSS VL: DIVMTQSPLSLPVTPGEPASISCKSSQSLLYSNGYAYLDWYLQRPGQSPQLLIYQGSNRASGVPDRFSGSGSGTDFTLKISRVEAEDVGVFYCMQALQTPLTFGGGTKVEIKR', 'kon', 'M⁻¹ s⁻¹', 385000),
  ('Antibody E21 (antibody, human IgG1, kappa, L234A L235A, V domains shown) VH: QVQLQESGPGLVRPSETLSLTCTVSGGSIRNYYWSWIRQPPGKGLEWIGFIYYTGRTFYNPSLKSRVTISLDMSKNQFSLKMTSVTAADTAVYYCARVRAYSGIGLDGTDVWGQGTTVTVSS VL: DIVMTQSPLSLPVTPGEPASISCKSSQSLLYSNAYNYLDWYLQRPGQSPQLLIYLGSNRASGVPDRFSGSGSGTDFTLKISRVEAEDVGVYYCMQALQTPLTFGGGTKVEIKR', 'kon', 'M⁻¹ s⁻¹', 476000);

Continue with the binder presented below.
Query: Field request: kon | item: Antibody E20 (antibody, human IgG1, kappa, L234A L235A, V domains shown) VH: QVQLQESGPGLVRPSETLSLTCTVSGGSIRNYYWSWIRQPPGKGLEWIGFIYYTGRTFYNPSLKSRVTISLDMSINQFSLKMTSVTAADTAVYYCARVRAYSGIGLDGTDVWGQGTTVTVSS VL: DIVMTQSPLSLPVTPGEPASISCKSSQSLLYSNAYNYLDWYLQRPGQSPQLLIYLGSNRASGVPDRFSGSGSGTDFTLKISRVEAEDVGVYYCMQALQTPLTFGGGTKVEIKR
Reply: 480000
